// values below are reported IC50
# Tested on: PANC-1
# protocol_details: In vitro inhibition, CellTiter-Glo (CTG) assay, 72 hr exposure
# Assay type: cell-based
# conditions: Homo sapiens, PANC-1, 72 hr

Reference set, count: 2
compound	IC50
CC(C)OC(=O)[C@H](C)NP(=O)(OC[C@H]1S[C@@H](n2ccc(N)nc2=O)[C@@H](O)[C@@H]1O)Oc1ccccc1 (single isomer, unassigned) [Compound 101b (diastereoisomer 1)]	10 to 100 µM
CCOC(=O)COP(=O)(N[C@@H](CC(C)C)C(=O)OCC)OC[C@H]1S[C@@H](n2ccc(N)nc2=O)[C@@H](O)[C@@H]1O (single isomer, unassigned) [Compound 102b (diastereoisomer 1)]	10 to 100 µM

If you can, please state the reported IC50 value of CC(C)(C)SSCCOP(=O)(NCc1ccccc1)OC[C@H]1S[C@@H](n2ccc(N)nc2=O)[C@@H](O)[C@@H]1O (single isomer, unassigned) [Compound 105 (diastereoisomer 1)] . 10 to 100 µM
